// provenance: patent US20050222247A1

TARGET: human β2-adrenoceptor (Homo sapiens, UniProt P07550)
Construct: expressed in transfected cells; host or cells: Chinese hamster ovary (CHO) cells (hβ2-CHO)
Sequence (P07550 whole entry): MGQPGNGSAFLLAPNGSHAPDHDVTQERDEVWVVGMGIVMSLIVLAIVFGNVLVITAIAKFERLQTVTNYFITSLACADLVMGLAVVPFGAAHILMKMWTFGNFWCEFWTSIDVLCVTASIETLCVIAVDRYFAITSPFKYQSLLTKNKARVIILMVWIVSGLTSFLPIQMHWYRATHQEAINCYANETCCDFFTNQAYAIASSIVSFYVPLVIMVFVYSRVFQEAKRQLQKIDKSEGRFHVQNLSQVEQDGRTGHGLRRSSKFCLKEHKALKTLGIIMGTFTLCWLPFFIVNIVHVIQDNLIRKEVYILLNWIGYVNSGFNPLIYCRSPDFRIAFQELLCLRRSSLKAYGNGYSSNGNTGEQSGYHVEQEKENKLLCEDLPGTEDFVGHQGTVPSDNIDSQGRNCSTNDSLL
ASSAY INFO: Agonistic activity, calcium influx in CHO cells (Assay 2 - Method B)
Format: cell-based
RUN CONDITIONS: agonist, hβ2-CHO cells, read-out: Beta-2 EC50
Counter-ions that a name gives are not always drawn.
MEASUREMENT TYPE: EC50

Param readout= EC50; system= human β2-adrenoceptor (Homo sapiens, UniProt P07550); entry= O=C(O)c1cc(F)ccc1Oc1ccc2c(c1)CC[C@H](CNC[C@H](O)COc1ccccc1)O2 [Example 44, Hydrochloride] ; returns value.
> 10 µM

Checklist item: EC50 tested on human β2-adrenoceptor (Homo sapiens, UniProt P07550), entry "COc1cc(Oc2ccc3c(c2)CC[C@H](CNC[C@H](O)COc2ccccc2)O3)c(C(=O)O)cc1OC" , value?
> 10 µM

---

TARGET: human β1-adrenoceptor (Homo sapiens)
Construct: expressed in transfected cells; host or cells: Chinese hamster ovary (CHO) cells
ASSAY INFO: Agonistic activity, cAMP levels in CHO cells (Assay 2 - Method A)
Type: cell-based
RUN CONDITIONS: agonist, CHO cells expressing recombinant human β1-adrenoceptor, read-out: Beta-1 EC50
pEC50: −log10 of the molar value.
MEASUREMENT TYPE: pEC50

I have this compound here, "O=C(O)c1ccccc1Oc1ccc2c(c1)CC[C@H](CNC[C@H](O)COc1ccccc1)O2" , and I need its recorded pEC50.
< 5.00

---

TARGET: human β2-adrenoceptor (Homo sapiens, UniProt P07550)
Construct: expressed in transfected cells; host or cells: Chinese hamster ovary (CHO) cells (hβ2-CHO)
ASSAY INFO: Agonistic activity, cAMP levels in CHO cells (Assay 2 - Method A)
Assay type: cell-based
RUN CONDITIONS: agonist, hβ2-CHO cells, read-out: Beta-2 EC50
MEASUREMENT TYPE: EC50

Which EC50 is reported for this compound? "O=C(O)c1ccccc1Oc1ccc2c(c1)CC[C@H](CNC[C@H](O)COc1ccccc1)O2"
> 10 µM

Field request: EC50 | item: "CC(C)(C)c1cc(C(=O)O)ccc1Oc1ccc2c(c1)CC[C@H](CNC[C@H](O)COc1ccccc1)O2"
> 10 µM

---

MEASUREMENT TYPE: melting point (°C)
Give just the numeric value; °C need not be written.

Form field: reported melting point of "O=C(O)c1ccccc1Oc1ccc2c(c1)CC[C@H](CNC[C@H](O)COc1ccccc1C(F)(F)F)O2"
162

Given the compound "O=C(O)c1ccccc1Oc1ccc2c(c1)CC[C@H](CNC[C@H](O)COc1ccccc1F)O2" , what is its reported melting point?
209

Find the recorded melting point belonging to "O=C(O)c1ccccc1Oc1ccc2c(c1)CC[C@H](CNC[C@H](O)COc1ccccc1-c1ccccc1)O2" and report it.
175

Report melting point for "O=C(O)c1ccccc1Oc1ccc2c(c1)CC[C@H](CNC[C@H](O)COc1ccccc1Cl)O2" please.
230

---

TARGET: human β1-adrenoceptor (Homo sapiens, UniProt P08588)
Construct: expressed in transfected cells; host or cells: Chinese hamster ovary (CHO) cells
Sequence (P08588 whole entry): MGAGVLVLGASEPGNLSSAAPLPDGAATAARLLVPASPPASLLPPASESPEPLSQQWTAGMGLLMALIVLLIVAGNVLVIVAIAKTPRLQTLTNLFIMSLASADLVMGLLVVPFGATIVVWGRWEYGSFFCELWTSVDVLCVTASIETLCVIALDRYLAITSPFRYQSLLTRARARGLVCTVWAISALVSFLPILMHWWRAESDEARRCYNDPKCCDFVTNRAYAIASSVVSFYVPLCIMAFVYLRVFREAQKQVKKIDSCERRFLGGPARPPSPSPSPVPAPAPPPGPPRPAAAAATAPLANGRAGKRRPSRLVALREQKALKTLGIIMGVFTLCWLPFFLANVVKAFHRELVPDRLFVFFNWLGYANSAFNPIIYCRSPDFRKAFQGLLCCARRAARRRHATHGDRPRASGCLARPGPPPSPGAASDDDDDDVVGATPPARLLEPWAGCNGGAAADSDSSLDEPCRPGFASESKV
ASSAY INFO: Agonistic activity, calcium influx in CHO cells (Assay 2 - Method B)
Format: cell-based
RUN CONDITIONS: agonist, CHO cells expressing recombinant human β1-adrenoceptor, read-out: Beta-1 EC50
MEASUREMENT TYPE: pEC50
Give only the number. pEC50 is defined as minus log10 of concentration in molar units.

Quick check: pEC50 of "COc1cc(Oc2ccc3c(c2)CC[C@H](CNC[C@H](O)COc2ccccc2)O3)c(C(=O)O)cc1OC" ?
5.10
